Exercise: state measured protein stability index for each of the variants provided.
B1: ZNF263 (parent)
chain: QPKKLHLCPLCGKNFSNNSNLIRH

Variants of: B1
Test: protein stability index of a GFP-peptide fusion (GPS, HEK-293T) (PSI 1-6); higher = more stable;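 note: lentivirally expressed fusions sorted by FACS into six bins by GFP to DsRed ratio, PSI derived from sequencing read proportions per bin multiplied by bin number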
Settings: c terminus: a fixed tail appended

Mutant	protein stability index
H6F	2.44
L5S	2.39
K13I	1.89
I22T	2.35
S16V	2.05
P2F	2.44
R23Q	2.77
H6E	2.38

get_value(item= L7G , readout=protein stability index) returns 2.08
